This section presents compounds with their documented pIC50 values.
- target-system: histone deacetylase activity (HeLa nuclear extract)
- assay-summary: HDAC fluorescent activity assay (Fluor de Lys, Biomol)
- Format: biochemical
- test-parameters: IC50 allocated to ranges, read-out: HDAC activity
- Procedure: The ability of compounds to inhibit histone deacetylase activities was measured using the commercially available HDAC fluorescent activity assay from Biomol. […] IC50 values were determined by non-linear regression analysis, after fitting the results of eight data points to the equation for sigmoidal dose response with variable slope (% activity against log concentration of Compound), using Graphpad Prism software. […]
pIC50: −log10 of the molar value.

compound: CC(C)(C)OC(=O)[C@@H](NCc1ccc(CCC(=O)NO)nc1)C1CCCCC1
pIC50: > 7.00
//
compound: CC(C)(C)[C@H](NCc1ccc(CCC(=O)NO)cc1)C(=O)O
pIC50: < 6.00
//
compound: O=C(CCc1ccc(CN[C@H](C(=O)OC2CCCC2)C2CCCCC2)nc1)NO
pIC50: 6.00 to 7.00
//
compound: CC(C)C[C@H](NCc1ccc(CCC(=O)NO)cc1)C(=O)OC1Cc2ccccc2C1
pIC50: 6.00 to 7.00
//
compound: CC(C)(C)OC[C@H](NCCCOc1ccc(/C=C/C(=O)NO)cc1)C(=O)OC1CCCC1
pIC50: 6.00 to 7.00
//
compound: O=C(CCc1ccc(CN[C@H](C(=O)O)C2CCCCC2)cn1)NO
pIC50: > 7.00
//
compound: CC(C)C[C@H](NCc1ccc(CNCc2ccc(CCC(=O)NO)cc2)cc1)C(=O)OC(C)(C)C
pIC50: 6.00 to 7.00
//
compound: O=C(/C=C/c1ccc(CN[C@H](C(=O)OCCN2CCOCC2)C2CCCCC2)cn1)NO
pIC50: > 7.00
//
compound: O=C(CCc1ccc(CN[C@H](C(=O)OC2CCCC2)C2CCCCC2)cc1)NO
pIC50: 6.00 to 7.00
//
compound: O=C(/C=C/c1ccc(CN2CCC(CN[C@H](C(=O)O)c3ccccc3)CC2)cc1)NO
pIC50: < 6.00
//
compound: O=C(/C=C/c1ccc(CN[C@H](C(=O)OC2CCCC2)C2CCCCC2)cn1)NO
pIC50: > 7.00
//
compound: O=C(/C=C/c1ccc(CN[C@H](C(=O)OC2CCCC2)C2CCCCC2)nc1)NO
pIC50: > 7.00
//
compound: CC1CCCC1OC(=O)[C@@H](NCc1ccc(/C=C/C(=O)NO)cc1)C1CCCCC1 (stereo partly drawn)
pIC50: 6.00 to 7.00
//
compound: C=CCOC(=O)[C@@H](NCc1ccc(/C=C/C(=O)NO)cc1)C1CCCCC1
pIC50: > 7.00
//
compound: O=C(/C=C/c1ccc(CN[C@H](C(=O)OCCN2CCOCC2)C2CCCCC2)cc1)NO
pIC50: 6.00 to 7.00
//
compound: CC(C)C[C@H](NCc1ccc(/C=C/C(=O)NO)cc1)C(=O)OC1CCCC1
pIC50: > 7.00
//
compound: CC(C)C[C@H](NC(C)c1ccc(/C=C/C(=O)NO)cc1)C(=O)O (stereo partly drawn)
pIC50: > 7.00
//
compound: O=C(/C=C/c1ccc(CN[C@H](C(=O)OC2CCCC2)C2CCCCC2)cc1)NO
pIC50: > 7.00
//
compound: CC1CCC(OC(=O)[C@@H](NCc2ccc(/C=C/C(=O)NO)cc2)C2CCCCC2)C1 (stereo partly drawn)
pIC50: 6.00 to 7.00
//
compound: O=C(CCc1ccc(CNCc2ccc(CN[C@H](C(=O)OC3CCCC3)C3CCCCC3)cc2)cc1)NO
pIC50: 6.00 to 7.00
//
compound: O=C(/C=C/c1ccc(OCCCN[C@H](C(=O)OC2CCCC2)C2CCCCC2)cc1)NO
pIC50: < 6.00
//
compound: CC(C)C[C@H](NCc1ccc(/C=C/C(=O)NO)cc1)C(=O)O
pIC50: > 7.00
//
compound: CC(C)C[C@H](NCc1ccc(CCC(=O)NO)cc1)C(=O)OC1CCCC1
pIC50: 6.00 to 7.00
//
compound: O=C(CCc1ccc(CN[C@H](C(=O)O)c2ccccc2)cc1)NO
pIC50: < 6.00
//
compound: CC(C)(C)OC[C@H](NCc1ccc(CNCc2ccc(/C=C/C(=O)NO)cc2)cc1)C(=O)OC1CCCC1
pIC50: 6.00 to 7.00
//
compound: CC(C)C[C@H](NCc1cccc(CCC(=O)NO)c1)C(=O)OC1CCCC1
pIC50: < 6.00
//
compound: CC(C)C[C@H](NCc1ccc(/C=C/C(=O)NO)nc1)C(=O)O
pIC50: > 7.00
//
compound: O=C(/C=C/c1cccc(CN[C@H](C(=O)OC2CCCC2)c2ccccc2)c1)NO
pIC50: < 6.00
//
compound: CN(C)CCOC(=O)[C@@H](NCc1ccc(/C=C/C(=O)NO)cc1)C1CCCCC1
pIC50: > 7.00
//
compound: CC(C)(C)OC(=O)[C@@H](NCc1ccc(/C=C/C(=O)NO)nc1)c1ccccc1
pIC50: > 7.00
